system: AMBROSIA ARTEMISIIFOLIA, L.; assay: Preemergence herbicidal evaluation, AMBEL (Ragweed, Common); type: in vivo; parameters: key: visual rating scale 0-9 vs control; settings: Rate 0.500 kg/ha, rated four to five weeks after treatment
property_name: AMBEL
Form field (numeric): enter value without unit.

Examples with answers:
>  <molecule>
C=CCn1c(=O)[nH]c(=O)n(-c2cc(N3C(=O)C4=C(CCCC4)C3=O)c(F)cc2Cl)c1=O [Compound 18]

>  <AMBEL>
0.0

$$$$
>  <molecule>
CC(C)OC(=O)Cn1c(=O)n(C)c(=O)n(-c2cc(N3C(=O)C4C[S+]([O-])CCN4C3=O)c(F)cc2Cl)c1=O (centres unmarked) [Compound 14]

>  <AMBEL>
3.0

$$$$
>  <molecule>
CC(C)OC(=O)Cn1c(=O)n(C)c(=O)n(-c2cc(N=c3sc(=O)n4n3CCCC4)c(F)cc2Cl)c1=O [Compound 13]

>  <AMBEL>
8.0

$$$$
>  <molecule>
C#CCn1c(=O)n(C)c(=O)n(-c2cc(N3C(=O)C4=C(CCCC4)C3=O)c(F)cc2Cl)c1=O [Compound 16]

>  <AMBEL>
2.0

$$$$

Quick check: AMBEL of C=CCn1c(=O)n(C)c(=O)n(-c2cc(N3C(=O)C4=C(CCCC4)C3=O)c(F)cc2Cl)c1=O [Compound 17] ? 2.0
